- System: U-251
- measurement.description: NCI tumour cell line growth inhibition, 48 h
Calls of active or inactive are those of the source. No stated cut-off is given here; in the data, active = GI50 up to about 1.1 µM and inactive = higher.
result.type: GI50

O=C1Nc2ccc(Cl)cc2/C1=C\c1c(Cl)nc2sccn12
2.93 µM (inactive)
COc1ccc(C(=O)NNC(=O)c2nsc3ccccc23)cc1
41.1 µM (inactive)
O=[N+]([O-])c1cccc2nc3ccccc3c(NCCCCCNc3c4ccccc4nc4cccc([N+](=O)[O-])c34)c12
0.0368 µM (active)
NC(Cc1cc(Br)c(O)c(Br)c1)C(=O)O (stereo not given)
> 100 µM (inactive)
C=CCC12CCC(=O)[C@@]1(C)CC=C(O)C2=O (stereo not given in full)
> 100 µM (inactive)
CC(SC(=S)N1CCOCC1)c1cc2oc(=O)n(C)c2cc1Cl (stereo not given)
> 100 µM (inactive)
Cn1c2ccccc2c2cc(N3CCCC3)c3c(c21)C(=O)N(c1ccccc1)C3=O
> 100 µM (inactive)
O=C1CCC(NC(=O)Cc2ccc(O)cc2)C(=O)N1 (stereo not given)
> 2500 µM (inactive)
CCOC(=O)C#Cc1ccc(C#CC(=O)OCC)cc1
2.51 µM (inactive)
COC(=O)c1cc2c(=O)n(C)c3ccccc3n2c1C(=O)OC
24.1 µM (inactive)
CC(=O)OCC1OC(n2c(-c3ccccc3)c(C)c(C)c(C#N)c2=S)C(OC(C)=O)C(OC(C)=O)C1OC(C)=O (stereo not given)
20.3 µM (inactive)
CC(=N\N=C\c1ccccn1)/C(C)=N/N=C/c1ccccn1
> 100 µM (inactive)
Cc1cccc(/N=C/C=C(\Cl)c2ccc3ccccc3c2)c1
14.8 µM (inactive)
Cc1cccc(/C=N/NC(=S)N2CCCCCC2)n1
< 0.0417 µM (active)
O=C(NCc1cccc(C(F)(F)F)c1)c1cc2sccc2nc1C(F)(F)F
27.4 µM (inactive)
C=C(C)[C@]12CC(C)C34OC(/C=C\C=C\CCCCCCCCC)(O[C@@H]1[C@@H]3[C@@H]1O[C@]1(CO)[C@@H](O)[C@]1(O)C(=O)C(C)=C[C@@H]41)O2 (stereo not given in full)
15.5 µM (inactive)
O=S(=O)(c1ccc(-c2nnc(-c3ccc(F)cc3)o2)cc1)c1ccc(-c2nnc(-c3ccc(F)cc3)o2)cc1
21.7 µM (inactive)
Cn1c2ccccc2c2c(-c3ccccc3)[n+]3ccccc3nc21
24.8 µM (inactive)
COC(=O)NCCc1n[nH]c2c1C(=O)C=C(OC)C2=O
16.7 µM (inactive)
CN(CCN1C(=O)c2cc([N+](=O)[O-])cc3cc([N+](=O)[O-])cc(c23)C1=O)CCN1C(=O)c2cc([N+](=O)[O-])cc3cc([N+](=O)[O-])cc(c23)C1=O
0.375 µM (active)

---

- Test system: IGROV-1
- measurement.description: NCI tumour cell line growth inhibition, 48 h
Calls of active or inactive are those of the source. Cut-off read from the data, not from the text of the source: active = GI50 up to about 1.1 µM and inactive = higher.
Outcome codes: active, inactive

CC1=C2CN(C(=O)OCC(C)C)CCC2C2=C(C(=O)c3ccccc3C2=O)C1C (stereo unspecified)
inactive
N#Cc1c2ccc([N+](=O)[O-])cc2c(=O)n2c1sc1ccc(C(F)(F)F)cc12
inactive
C#CCCOC1(OC)N=NC(C)(C)O1 (stereo unspecified)
inactive
COc1ccc(OCC(=N/NC(=O)c2ccncc2)/N=C/c2cccnc2)cc1
inactive
COC(=O)/C=C\C(C#N)(C#N)/N=C/c1sccc1C
inactive
Cc1[nH]c2ncn(Nc3ccccc3)c(=N)c2c1Cc1ccccc1
inactive
CC[C@]1(O)C(=O)OCc2c1cc1n(c2=O)Cc2cc3c(N)cccc3nc2-1
inactive
CC[C@@]1(O)C(=O)OCc2c1cc1n(c2=O)Cc2cc3ccccc3nc2-1 [CAMPTOTHECIN]
active
N#Cc1c(-c2ccccc2)c(-c2ccccc2)cc2c(=O)c3ccc(Cl)cc3[nH]c12
inactive
CCc1n[nH]c(=O)n1N1C(=O)CCC1=O
inactive
O=C1CCc2c(sc3ncnc(Nc4cccc(Br)c4)c23)C1
inactive
